procedureSummary: Comparison of ^177Lu-IMP-241 and ^111In-IMP-241 pretargeting using hMN-14 × m679 F(ab′)2 bsMAb (24 h bsMAb clearance)
Format: in vivo, nude mice
assayConditions: female, NCr nude, mouse, liver, iv, total radioactivity, Liver, 3 hour after peptide; read-out: Percent Injected Dose Per Gram
*1 amine or outer side, *2 acyl side, *3 side chain or, on linkers, in order; H or OH if unused. Where a SMILES comes first, the peptide text is derived from it. Side-chain parts run from the residue outwards. [ ]: non-standard residue; d: D form. The star is where a group is joined. DOTA = O=C(O)CN1CCN(CC(=O)O)CCN(CC(=O)*)CCN(CC(=O)O)CC1; NH(2-(imidazol-4-yl)ethyl) = c1ncc(CCN*)[nH]1; Suc = O=C(CCC(=O)[*:2])[*:1]
quantityName: tissue uptake at 3 h (%ID/g)
Note: unit %ID/g is implicit; provide only the numeric part.

Query string: GET /values?readout=tissue uptake at 3 h&item= NC(=O)[C@H](CCCCNC(=O)CNC(=O)CCC(=O)NCCc1cnc[nH]1)NC(=O)[C@@H](Cc1ccc(O)cc1)NC(=O)[C@H](CCCCNC(=O)CNC(=O)CCC(=O)NCCc1cnc[nH]1)NC(=O)[C@H](Cc1ccccc1)NC(=O)CN1CCN(CC(=O)O)CCN(CC(=O)O)CCN(CC(=O)O)CC1 [^177Lu-IMP-241, metal not drawn] ({DOTA}-FK([Gly-Suc-NH(2-(imidazol-4-yl)ethyl)])[dY]K([Gly-Suc-NH(2-(imidazol-4-yl)ethyl)])-NH2)
Result string: 0.46
